This section presents compounds with their documented Log 1/IC50 values.
- Test Target: Glutamate [NMDA] receptor
- Experimental Details: Compound was tested for inhibition of [3H]DCKA binding to N-methyl-D-aspartate glutamate receptor
- Format: protein-complex assay
- Design: unit not given here

{"Structure String": "O=Nc1c(O)nc2cc(Cl)cc(Cl)c2c1O", "Log 1/IC50": 1.48}
{"Structure String": "Oc1nc2ccncc2c(O)c1-c1cccc(Oc2ccccc2)c1", "Log 1/IC50": -1.3}
{"Structure String": "Oc1nc2cc(Cl)cnc2c(O)c1-c1cccc(Cl)c1", "Log 1/IC50": -0.48}
{"Structure String": "CCc1cc2nc(O)c(O)nc2cc1CC", "Log 1/IC50": -0.26}
{"Structure String": "CCSc1c(Cl)cc2nc(O)c(O)nc2c1[N+](=O)[O-]", "Log 1/IC50": 0.19}
{"Structure String": "Oc1nc2cnccc2c(O)c1-c1cccc(Oc2ccccc2)c1", "Log 1/IC50": -0.73}
{"Structure String": "Cc1cc2nc(O)c(O)nc2cc1Cl", "Log 1/IC50": 0.11}
{"Structure String": "COc1cccc(-c2c(O)nc3cc(Cl)cnc3c2O)c1", "Log 1/IC50": -0.46}
{"Structure String": "Cc1cc2nc(O)c(O)nc2c([N+](=O)[O-])c1Cl", "Log 1/IC50": 1.35}
{"Structure String": "O=[N+]([O-])c1c(O)nc2cc(Cl)c(Cl)c(Cl)c2c1O", "Log 1/IC50": 0.66}
{"Structure String": "O=Nc1c(O)nc2cc(Cl)c(Cl)c(Cl)c2c1O", "Log 1/IC50": 2.15}
{"Structure String": "O=Nc1c(O)nc2ccc(Cl)c(Cl)c2c1O", "Log 1/IC50": 0.77}
{"Structure String": "Oc1nc2ncccc2c(O)c1-c1ccccc1", "Log 1/IC50": -2}
{"Structure String": "O=[N+]([O-])c1c(O)nc2cccc(Cl)c2c1O", "Log 1/IC50": -1.78}
{"Structure String": "O=[N+]([O-])c1c(O)nc2cc(Cl)cc(Cl)c2c1O", "Log 1/IC50": 0.66}
{"Structure String": "Oc1nc2cccnc2c(O)c1-c1ccccc1", "Log 1/IC50": -2}
{"Structure String": "N#Cc1cc([N+](=O)[O-])c2nc(O)c(O)nc2c1", "Log 1/IC50": -0.45}
{"Structure String": "Cc1c(Cl)cc2nc(O)c(O)nc2c1N", "Log 1/IC50": 0.82}
{"Structure String": "CCCCOc1c(F)cc2nc(O)c(O)nc2c1[N+](=O)[O-]", "Log 1/IC50": -0.63}
{"Structure String": "Cc1cc2nc(O)c(O)nc2cc1C", "Log 1/IC50": -0.52}
{"Structure String": "O=[N+]([O-])c1c(O)nc2c(Cl)c(Cl)c(Cl)cc2c1O", "Log 1/IC50": -2}
{"Structure String": "Oc1nc2cc(Cl)cc(Cl)c2nc1O", "Log 1/IC50": 0.55}
{"Structure String": "Cc1c(Cl)cc2nc(O)c(O)nc2c1[N+](=O)[O-]", "Log 1/IC50": 2.33}
{"Structure String": "Nc1c(F)cc2nc(O)c(O)nc2c1[N+](=O)[O-]", "Log 1/IC50": -1.04}
{"Structure String": "COc1c(F)cc2nc(O)c(O)nc2c1[N+](=O)[O-]", "Log 1/IC50": -0.28}
{"Structure String": "Cc1cc([N+](=O)[O-])c2nc(O)c(O)nc2c1", "Log 1/IC50": -0.97}
{"Structure String": "Cc1cc(C)c2nc(O)c(O)nc2c1", "Log 1/IC50": -0.32}
{"Structure String": "Cc1c(Br)cc2nc(O)c(O)nc2c1[N+](=O)[O-]", "Log 1/IC50": 2.06}
{"Structure String": "CCc1cc2nc(O)c(O)nc2c([N+](=O)[O-])c1Br", "Log 1/IC50": 1.09}
{"Structure String": "Oc1nc2cc(Cl)cnc2c(O)c1-c1ccc(Cl)cc1", "Log 1/IC50": -1.11}
{"Structure String": "O=[N+]([O-])c1c(OCCCc2ccccc2)c(F)cc2nc(O)c(O)nc12", "Log 1/IC50": -0.6}
{"Structure String": "O=Nc1c(O)nc2ccccc2c1O", "Log 1/IC50": -0.15}
{"Structure String": "O=Nc1c(O)nc2cc(Cl)ccc2c1O", "Log 1/IC50": 1.28}
{"Structure String": "O=c1[nH]c2cc(Cl)c(Cl)c([N+](=O)[O-])c2[nH]c1=O", "Log 1/IC50": 2.23}
{"Structure String": "Oc1nc2cc(F)c(Cl)c(F)c2nc1O", "Log 1/IC50": 0.2}
{"Structure String": "O=[N+]([O-])c1c(O)nc2c(F)c(F)c(F)c(F)c2c1O", "Log 1/IC50": -2}
{"Structure String": "Oc1nc2cc3c(cc2nc1O)OCO3", "Log 1/IC50": -2}
{"Structure String": "COc1cc2nc(O)c(O)nc2cc1OC", "Log 1/IC50": -1.23}
{"Structure String": "Cc1cc(C)c2c(O)c(N=O)c(O)nc2c1", "Log 1/IC50": 1.43}
{"Structure String": "Oc1nc2cc3ccccc3cc2nc1O", "Log 1/IC50": -1.2}

###

This section presents compounds with their documented Log 1/IC50 values.
- Test Target: Glutamate [NMDA] receptor
- Experimental Details: Compound was tested for inhibition of [3H]DCKA binding to N-methyl-D-aspartate glutamate receptor
- Format: protein-complex assay
- Set-up: unit not given here

{"Structure String": "Cc1cccc(-c2c(O)nc3cc(Cl)cnc3c2O)c1", "Test Target": "Glutamate [NMDA] receptor", "Log 1/IC50": -0.25}
{"Structure String": "Oc1nc2cc(Cl)cnc2c(O)c1-c1cccs1", "Test Target": "Glutamate [NMDA] receptor", "Log 1/IC50": -0.99}
{"Structure String": "O=Nc1c(O)nc2cc(Cl)c(Cl)cc2c1O", "Test Target": "Glutamate [NMDA] receptor", "Log 1/IC50": 1.92}

###

This section presents molecules with their documented IC50 values.
- Test Target: Glutamate [NMDA] receptor
- Experimental Details: Inhibition of [3H]DCKA binding to N-methyl-D-aspartate glutamate receptor
Experimental Readout: IC50 (nM)

{"Structure String": "Oc1nc2cccnc2c(O)c1-c1ccccc1", "Test Target": "Glutamate [NMDA] receptor", "Value Prefix": ">", "Measured": 100000}
{"Structure String": "O=[N+]([O-])c1c(O)nc2ccc(Cl)cc2c1O", "Test Target": "Glutamate [NMDA] receptor", "Value Prefix": ">", "Measured": 100000}
{"Structure String": "Oc1cc2nc(O)c(O)nc2cc1O", "Test Target": "Glutamate [NMDA] receptor", "Value Prefix": ">", "Measured": 100000}
{"Structure String": "Oc1nc2cc(Cl)c(Cl)c(Cl)c2nc1O", "Test Target": "Glutamate [NMDA] receptor", "Value Prefix": "=", "Measured": 30}
{"Structure String": "COc1c(F)cc2nc(O)c(O)nc2c1[N+](=O)[O-]", "Test Target": "Glutamate [NMDA] receptor", "Value Prefix": "=", "Measured": 1900}
{"Structure String": "Cc1cc2nc(O)c(O)nc2c([N+](=O)[O-])c1Cl", "Test Target": "Glutamate [NMDA] receptor", "Value Prefix": "=", "Measured": 45}
{"Structure String": "Oc1nc2cc(Cl)cnc2c(O)c1-c1cccc(Oc2ccccc2)c1", "Test Target": "Glutamate [NMDA] receptor", "Value Prefix": "=", "Measured": 110}
{"Structure String": "Cc1cc(C)c2nc(O)c(O)nc2c1", "Test Target": "Glutamate [NMDA] receptor", "Value Prefix": "=", "Measured": 2100}
{"Structure String": "O=Nc1c(O)nc2cc(Cl)c(Cl)cc2c1O", "Test Target": "Glutamate [NMDA] receptor", "Value Prefix": "=", "Measured": 12}
{"Structure String": "Oc1nc2ncccc2c(O)c1-c1ccccc1", "Test Target": "Glutamate [NMDA] receptor", "Value Prefix": ">", "Measured": 100000}
{"Structure String": "O=[N+]([O-])c1c(O)nc2cc(Cl)c(Cl)cc2c1O", "Test Target": "Glutamate [NMDA] receptor", "Value Prefix": "=", "Measured": 400}
{"Structure String": "O=Nc1c(O)nc2c(Cl)cccc2c1O", "Test Target": "Glutamate [NMDA] receptor", "Value Prefix": ">", "Measured": 100000}
{"Structure String": "Oc1nc2cc3c(cc2nc1O)OCO3", "Test Target": "Glutamate [NMDA] receptor", "Value Prefix": ">", "Measured": 100000}

Where these numbers come from: ChEMBL document CHEMBL1146606
